The origin of these recorded values is ChEMBL document CHEMBL1141243.

Test system: AGS
assayExplanation: Cytotoxicity against human cancer AGS cell line by MTT assay
Format: functional
conditionContext: read-out: LD50 (the source's name)
Rule: CC50 below 4 µM gives fulfilled. Equal to or above 4 µM gives not fulfilled.

// known answers, use as guide
COc1cccc2c1C(=O)c1c(O)c3c(c(O)c1C2=O)C[C@@](O)(C(=O)CO)C[C@@H]3O[C@H]1C[C@H](N)[C@H](O)[C@H](C)O1 [DOXORUBICIN] :: fulfilled
C=CC(C)(C)c1c(OC)cc(O)c2c(=O)c3ccc(O)c(O)c3oc12 [ISOCUDRANIAXANTHONE B] :: not fulfilled
C=CC(C)(C)c1c(O)cc(O)c2c(=O)c3c(CC=C(C)C)c(OC)c(O)cc3oc12 [CUDRAXANTHONE C] :: not fulfilled
C=CC(C)(C)c1c(O)c(CC=C(C)C)c2oc3cc(O)c(O)cc3c(=O)c2c1O [MACLURAXANTHONE B] :: not fulfilled

Let's switch to this molecule now.
Input C=CC(C)(C)c1c(O)cc(O)c2c(=O)c3cc(O)c4c(c3oc12)C=CC(C)(C)O4 ; condition: CC50 strictly below 4 µM. Does it hold? not fulfilled
